system: HepG2 cells; test: Cytotoxicity against HepG2 cells; format: cell-based
attribute measured: EC50 (µM)
Give the number; µM is assumed, so skip it.

1) CN(C)CCSc1ccc(NC(=O)c2cc(C(=O)Nc3ccc(SCCN(C)C)cc3)ncn2)cc1	648
2) N=C(N)NCCCOc1cc(OCCCNC(=N)N)c(-c2cccc(F)c2)cc1-c1cccc(F)c1	85
3) CCN(CC)CCN(CCN)c1c(Cl)cc(C(F)(F)F)cc1NC(=O)Nc1cc(C(F)(F)F)cc(Cl)c1N(CCN)CCN(CC)CC	24
4) N=C(N)NCCSc1ccc(NC(=O)Nc2ccc(OC3CCN(C(=N)N)C3)c(C(F)(F)F)c2)cc1C(F)(F)F (stereo not shown)	214
5) COc1cc(SCCN)c(C(F)(F)F)cc1NC(=O)Nc1cc(C(F)(F)F)c(SCCN)cc1OC	64
6) CC(C)(C)c1cc(NC(=O)c2cccc(C#N)c2)c(SCCN)c(NC(=O)c2cc(C(=O)Nc3cc(C(C)(C)C)cc(NC(=O)c4cccc(C#N)c4)c3SCCN)ncn2)c1	30
7) N=C(N)NCCCOc1cc(OCCCNC(=N)N)c(-c2ccccc2)cc1-c1ccccc1	119
8) CC1(C)c2cc(-c3cccc(CCN)c3)ccc2-c2ccc(-c3cccc(CCN)c3)cc21	5

# get_value(readout='EC50', item= NCCSc1c(NC(=O)c2cccnc2)cc(C(F)(F)F)cc1NC(=O)c1cc(C(=O)Nc2cc(C(F)(F)F)cc(NC(=O)c3cccnc3)c2SCCN)ncn1 ) 34

# get_value(readout='EC50', item= N=C(N)NCCCc1cccc(-c2cc(-c3cccc(CCCNC(=N)N)c3)ncn2)c1 ) 697

# get_value(readout='EC50', item= N=C(N)NCCCc1ccc(-c2ccc(-c3ccc(CCCNC(=N)N)cc3)s2)cc1 ) 197

# get_value(readout='EC50', item= NCCCc1ccc(-c2ccc(-c3ccc(CCCN)cc3)s2)cc1 ) 1

====

test system: P. falciparum DD2 (chloroquine-resistant); experiment: Anti-malarial activity, P. falciparum DD2 culture, 72 hour, DNA content by flow cytometry; format: cell-based; settings: Plasmodium falciparum, synchronized ring-stage parasites
Let's look at some molecules and their measured IC50.

1) CC(C)(C)c1cc(NC(=O)CCCCNS(C)(=O)=O)c(SCCNS(C)(=O)=O)c(NC(=O)c2cccc(C(=O)Nc3cc(C(C)(C)C)cc(NC(=O)CCCCNS(C)(=O)=O)c3SCCNS(C)(=O)=O)c2)c1	484 nM
2) N=C(N)NCCCCC(=O)Nc1ccc(Oc2cccc(Oc3ccc(NC(=O)CCCCNC(=N)N)cc3)c2)cc1	244 nM
3) N=C(N)NCCc1cccc(NC(=O)c2cc(C(=O)Nc3cccc(CCNC(=N)N)c3)ncn2)c1	135 nM

Now look at this one.
What value of IC50 on P. falciparum DD2 (chloroquine-resistant) does NCc1cc(C(F)(F)F)ccc1Oc1ccc(Oc2ccc(C(F)(F)F)cc2CN)cc1 have? 1230 nM

====

Let's look at some compounds and their measured pEC50.
tested on: HepG2 cells; assay: Cytotoxicity against HepG2 cells; assay type: cell-based
Answer as the number alone; pEC50 is minus log10 of concentration in mol/L.

Example results:
1. N=C(N)N1CC[C@@H](Oc2ccc(NC(=O)c3cc(C(=O)Nc4ccc(O[C@@H]5CCN(C(=N)N)C5)c(C(F)(F)F)c4)ncn3)cc2C(F)(F)F)C1	4.39
2. N=C(N)NCCc1cccc(-c2ccc(-c3cccc(CCNC(=N)N)c3)o2)c1	3.04
3. N=C(N)NCCCCC(=O)Nc1cc(F)cc(NC(=O)c2cc(C(=O)Nc3cc(F)cc(NC(=O)CCCCNC(=N)N)c3SCCN)ncn2)c1SCCN	4.09
4. N=C(N)NCCc1cccc(-c2ccc(-c3cccc(CCNC(=N)N)c3)cc2)c1	3.54
5. CN(C)C1CCN(c2ccc(NC(=O)c3cc(C(=O)Nc4ccc(N5CCC(N(C)C)CC5)cc4)ncn3)cc2)CC1	4.29
6. N=C(N)NCCc1cccc(-c2ccc(-c3cccc(CCNC(=N)N)c3)s2)c1	3.51
7. NCCc1cccc(-c2ccc(-c3cccc(CCN)c3)o2)c1	3.65
8. CC(C)(C)c1cc(N)c(SCCN)c(NC(=O)c2cccc(C(=O)Nc3cc(C(C)(C)C)cc(N)c3SCCN)n2)c1	5.05

# get_value(readout='pEC50', item= Nc1cc(NC(=O)c2cc(C(=O)Nc3ccc(N4CCNCC4)c(F)c3)ncn2)ccc1N1CCNCC1 ) 3.63

# get_value(readout='pEC50', item= O=C(Nc1ccc(OC2CCNC2)c(F)c1)c1cc(C(=O)Nc2ccc(OC3CCNC3)c(F)c2)ncn1 (stereo not drawn) ) 3.29

# get_value(readout='pEC50', item= NCCSc1c(NC(=O)c2cc(C(=O)Nc3cc(C(F)(F)F)cc(NC(=O)c4cccs4)c3SCCN)ncn2)cc(C(F)(F)F)cc1NC(=O)c1cccs1 ) 3.03

# get_value(readout='pEC50', item= NCCCOc1cccc(-c2cncc(-c3ccc(-c4cncc(-c5cccc(OCCCN)c5)c4)s3)c2)c1 ) 3.75

# get_value(readout='pEC50', item= NCCc1ccccc1-c1ccc(-c2ccccc2CCN)s1 ) 4.34

# get_value(readout='pEC50', item= N=C(N)NCCc1cccc(-c2cnc(-c3cccc(CCNC(=N)N)c3)s2)c1 ) 3.14

====

Let's look at some molecules and their measured IC50.
test system: P. falciparum DD2 (chloroquine-resistant); experiment: Anti-malarial activity, P. falciparum DD2 culture, 72 hour, DNA content by flow cytometry; format: cell-based; details: Plasmodium falciparum, synchronized ring-stage parasites
Give the number; nM is assumed, so skip it.

Example results:
1. NC1CCC(N2CCc3ccc(NC(=O)c4cc(C(=O)Nc5ccc6c(c5)CCN(C5CCC(N)CC5)CC6)ncn4)cc3CC2)CC1 (stereo not drawn) [Compound 148]	81
2. N=C(N)NCCCCOc1cc(OCCCCNC(=N)N)c(C(F)(F)F)cc1NC(=O)Nc1ccc(NC(=O)Nc2cc(C(F)(F)F)c(OCCCCNC(=N)N)cc2OCCCCNC(=N)N)cc1 [Compound 167]	951

# get_value(readout='IC50', item= CC(=O)NCCSc1c(NC(=O)CCCCNC(=N)N)cc(Br)cc1NC(=O)c1cc(C(=O)Nc2cc(Br)cc(NC(=O)CCCCNC(=N)N)c2SCCNC(C)=O)ncn1 [Compound 169] ) 150

====

test system: P. falciparum DD2 (chloroquine-resistant); assay: Anti-malarial activity, P. falciparum DD2 culture, 72 hour, DNA content by flow cytometry; type: cell-based; settings: Plasmodium falciparum, synchronized ring-stage parasites
attribute measured: IC50 (nM)
Give the number; nM is assumed, so skip it.

Example results:
1) N=C(N)NCCCCOc1cc(OCCCCNC(=N)N)c(C(F)(F)F)cc1NC(=O)Nc1cc(C(F)(F)F)c(OCCCCNC(=N)N)cc1OCCCCNC(=N)N [Compound 128]	886
2) N=C(N)N1CCC(Oc2cc(OC3CCN(C(=N)N)C3)c(C(F)(F)F)cc2NC(=O)c2cc(C(=O)Nc3cc(C(F)(F)F)c(O[C@@H]4CCN(C(=N)N)C4)cc3O[C@@H]3CCN(C(=N)N)C3)ncn2)C1 (stereo partly drawn) [Compound 111]	431

Now look at this one.
# get_value(readout='IC50', item= N#Cc1cccc(C(=O)Nc2cc(C(F)(F)F)cc(NC(=O)c3cc(C(=O)Nc4cc(C(F)(F)F)cc(NC(=O)c5cccc(C#N)c5)c4SCCN)ncn3)c2SCCN)c1 [Compound 101] ) 113

====

test: Cytotoxicity against 3T3 cells; format: cell-based; conditions: mouse, 3T3 cells; read-out: Cytotoxicity 3T3 EC50
attribute measured: pEC50
Answer as the number alone; pEC50 is minus log10 of concentration in mol/L.

1. COc1cc(SCCN)c(C(F)(F)F)cc1NC(=O)c1cc(C(=O)Nc2cc(C(F)(F)F)c(SCCN)cc2OC)ncn1 [Compound 301]	3.15

# get_value(readout='pEC50', item= NCCC#Cc1cncc(-c2cccc(-c3cncc(C#CCCN)c3)c2)c1 [Compound 142] ) 3.64

# get_value(readout='pEC50', item= N=C(N)NCCc1ccc(C(F)(F)F)cc1NC(=O)c1cc(C(=O)Nc2cc(C(F)(F)F)ccc2CCNC(=N)N)ncn1 [Compound 176] ) 3.28

# get_value(readout='pEC50', item= N=C(N)NCCc1cccc(NC(=O)c2cc(C(=O)Nc3cccc(CCNC(=N)N)c3)ncn2)c1 [Compound 100] ) 3.11

# get_value(readout='pEC50', item= O=C(Nc1ccc(C2CCNCC2)cc1)c1cc(C(=O)Nc2ccc(C3CCNCC3)cc2)ncn1 [Compound 208] ) 3.91

# get_value(readout='pEC50', item= N=C(N)NCCc1cccc(-c2cncc(-c3cccc(CCNC(=N)N)c3)c2)c1 [Compound 134] ) 3.18
